Recorded values, source patent US11840686B2.

Test system: human PKK mRNA
protocol_summary: Antisense inhibition of human PKK mRNA in HepaRG cells, 1,000 nM, MOE/deoxy/cEt oligonucleotides (Example 3)
Format: cell-based
conditions: HepaRG cells, electroporation with 1,000 nM antisense oligonucleotide, approximately 24 hours, primer probe set RTS3454, relative to untreated control cells; experiment of Table 24
Strand notation (5' to 3'): a small letter for the sugar, then the base; units joined by * are phosphorothioate-linked, units joined directly phosphodiester-linked; [ ] holds rarer units or linkages, { } end groups; capitals alone tell only the bases. e = 2'-O-(2-methoxyethyl) (MOE); k = constrained ethyl (cEt); [5mC] = 5-methylcytosine; d = 2'-deoxy (DNA)
Cut-off 50% on % inhibition, inclusive. At or above means 1; below means 0.

Record excerpt, results attached:
548012 (eT*e[5mC]*k[5mC]*d[5mC]*d[5mC]*dA*dG*dT*dG*dT*dT*dA*d[5mC]*kA*k[5mC]*eA; antisense) [compound 548012] | 0
548071 (eA*eG*kA*dA*dG*d[5mC]*d[5mC]*d[5mC]*d[5mC]*dA*dT*d[5mC]*d[5mC]*kG*kG*eT; antisense) [compound 548071] | 1
548041 (eT*eG*kT*dG*dA*dG*dA*dA*dA*dG*dG*dT*dG*kT*kA*eT; antisense) [compound 548041] | 1
548069 (e[5mC]*e[5mC]*kA*dA*d[5mC]*dA*dG*dT*dT*dG*dG*dT*dA*kT*kA*eA; antisense) [compound 548069] | 1
548043 (eA*eT*kT*dT*dG*dT*dG*dA*dG*dA*dA*dA*dG*kG*kT*eG; antisense) [compound 548043] | 1

Form field: % inhibition at least 50%? Entry: 548016 (eA*eA*kG*dA*dG*dT*dT*dT*dG*dT*dT*d[5mC]*d[5mC]*kT*k[5mC]*e[5mC]; antisense) [compound 548016]
1

Is % inhibition at least 50%? Consider 548039 (eG*eA*kA*dA*dG*dG*dT*dG*dT*dA*dT*d[5mC]*dT*kT*kT*eT; antisense) [compound 548039]
0

Is % inhibition at least 50%? Consider 548019 (e[5mC]*e[5mC]*k[5mC]*d[5mC]*dA*dA*dG*dA*dA*dG*dA*dG*dT*kT*kT*eG; antisense) [compound 548019]
0

Is % inhibition at least 50%? Consider 547998 (antisense e[5mC]*eT*kT*dG*dT*dG*dT*d[5mC]*d[5mC]*d[5mC]*dA*dT*dA*k[5mC]*kG*e[5mC]) [compound 547998]
1

Entry 548005 (eA*eG*kA*dG*dT*dA*dA*d[5mC]*d[5mC]*dA*dG*dA*dG*k[5mC]*kT*e[5mC]; antisense) [compound 548005] : is its % inhibition no less than 50%?
1

Determine whether measured % inhibition meets or exceeds 50% for 548004 (eA*eG*kT*dA*dA*d[5mC]*d[5mC]*dA*dG*dA*dG*d[5mC]*dT*k[5mC]*k[5mC]*e[5mC]; antisense) [compound 548004]
1

Hi team, for 548052 (e[5mC]*eA*kA*dA*dG*dG*dA*dG*d[5mC]*d[5mC]*dT*dG*dG*kA*kG*eT; antisense) [compound 548052] , is the recorded % inhibition at or above 50%?
0
